- test.protocol: Pharmacokinetic study in rats (oral gavage and tail vein injection, plasma LC-MS/MS)
- Assay type: in vivo
- details: rat, SD rats, Po, 1 mg/kg, read-out: Cmax
Listing of recorded Cmax by entry.
assay.readout: Cmax

compound: CCc1nc(-c2nnn(C)c2NC(=O)O[C@H](C)CC(C)(F)F)ccc1C#CC1(CC(=O)O)CC1 [compound 232]
readout.value: 200 to 800 ng/mL
//
compound: CCC(F)(F)CC(C)OC(=O)Nc1c(-c2ccc(C#CC3CCC3C(=O)O)c(C)n2)nnn1C (single isomer, unassigned) [245-B]
readout.value: 200 to 800 ng/mL
//
compound: Cc1nc(-c2nnn(C)c2COC(=O)N(C)CC2CCC2)ccc1C#CC1CC1C(=O)O (racemic) [compound 361]
readout.value: 200 to 800 ng/mL
//
compound: Cc1nc(-c2nnn(C)c2NC(=O)O[C@H](C)c2ccccc2Cl)ccc1C#C[C@H]1CC[C@@H]1C(=O)O [compound 033]
readout.value: 800 to 5000 ng/mL
//
compound: CCC(F)(F)[C@@H](C)OC(=O)Nc1c(-c2ccc(C#CC3(CC(=O)O)CC(OC)C3)c(C)n2)noc1C (some centres unmarked) [compound 468]
readout.value: 200 to 800 ng/mL
//
compound: CCC(F)(F)[C@@H](C)OC(=O)Nc1c(-c2ccc(C#CC3(CC(=O)O)CC3)c(C)n2)noc1C [compound 444]
readout.value: 200 to 800 ng/mL
//
compound: CCc1nc(-c2noc(C)c2NC(=O)O[C@H](C)C(F)(F)CC)ccc1C#CC1(CC(=O)O)CC(OC)C1 (some centres unmarked) [compound 492]
readout.value: 800 to 5000 ng/mL
//
compound: Cc1nc(-c2nnn(C)c2NC(=O)OC(C)C23CC(C2)C3)ccc1C#CC1(CC(=O)O)CC1 (racemic) [compound 260]
readout.value: 200 to 800 ng/mL
//
compound: Cc1nc(-c2nnn(C)c2NC(=O)O[C@H](C)CC(C)(C)F)ccc1C#CC1(CC(=O)O)CC1 [compound 263]
readout.value: 200 to 800 ng/mL
//
compound: CCC(F)(F)[C@@H](C)OC(=O)Nc1c(-c2ccc(C#CC3(CC(=O)O)CC(OC)C3)c(C(F)(F)F)n2)nnn1C (some centres unmarked) [compound 463]
readout.value: 800 to 5000 ng/mL
//
compound: Cc1nc(-c2nnn(C)c2NC(=O)O[C@H](C)CC(C)(F)F)ccc1C#C[C@H]1CCC[C@@H]1C(=O)O (single isomer, unassigned) [246-B]
readout.value: 200 to 800 ng/mL
//
compound: Cc1nc(-c2nnn(C)c2NC(=O)OC(C)CC(C)(F)F)ccc1C#CC1(CC(=O)O)CC1 (racemic) [compound 311]
readout.value: 200 to 800 ng/mL
//
compound: CCCC(C)OC(=O)Nc1c(-c2ccc(C#CC3CCCC3C(=O)O)c(C)n2)nnn1C (single isomer, unassigned) [305-B]
readout.value: 800 to 5000 ng/mL
//
compound: CCCCN(C)C(=O)OCc1c(-c2ccc(C#CC3(CC(=O)O)CC3)c(F)n2)nnn1C [compound 105]
readout.value: 200 to 800 ng/mL

====

- target.entity: LPAR1 receptor (Homo sapiens, UniProt Q92633)
- Construct: expressed in transfected cells
- Sequence (Q92633 whole entry): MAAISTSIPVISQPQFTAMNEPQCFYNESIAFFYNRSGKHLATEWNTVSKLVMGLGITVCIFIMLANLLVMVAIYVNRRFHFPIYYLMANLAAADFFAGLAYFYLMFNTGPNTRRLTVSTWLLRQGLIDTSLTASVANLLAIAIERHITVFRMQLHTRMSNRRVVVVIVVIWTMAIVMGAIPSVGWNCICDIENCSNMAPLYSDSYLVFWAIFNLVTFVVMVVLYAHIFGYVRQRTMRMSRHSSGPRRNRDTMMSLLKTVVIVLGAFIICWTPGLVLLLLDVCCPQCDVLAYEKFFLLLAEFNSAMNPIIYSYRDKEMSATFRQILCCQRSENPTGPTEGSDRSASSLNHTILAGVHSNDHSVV
- test.protocol: LPAR1 in vitro biological activity evaluation 2: HTRF cAMP kit (LANCE Ultra cAMP Kit) assay in CHO stable transfected cell line expressing the LPAR1 receptor
- Type: cell-based
- details: Table 2, read-out: LPAR1 inhibitory activity IC50
pIC50: −log10 of the molar value.
Category scheme (pIC50): low interval = under 7, middle interval = from 7 up to 8, high interval = 8 and over

molecule: Cc1nc(-c2nnn(C)c2NC(=O)O[C@H](C)c2ccccc2)ccc1C#C[C@@H]1CCC[C@H]1C(=O)O [compound 402]
label: middle interval
--
molecule: Cc1nc(-c2nnn(C)c2NC(=O)OC(C)C23CC(C2)C3)ccc1C#C[C@@H]1C[C@H]1C(=O)O (some centres unmarked) [compound 294]
label: low interval
--
molecule: CCC(F)(F)[C@@H](C)OC(=O)Nc1c(C)noc1-c1ccc(C#C[C@@H]2CC[C@H]2C(=O)O)c(C)n1 [compound 486]
label: middle interval
--
molecule: CCC(F)(F)[C@@H](C)OC(=O)Nc1c(-c2ccc(C#CC3(CC(=O)O)CC4(CC4)C3)c(C)n2)nnn1C [compound 449]
label: high interval
--
molecule: CCC[C@@H](C)OC(=O)Nc1c(-c2ccc(C#CC3(CC(=O)O)CC4(CC4)C3)c(C)n2)nnn1C [compound 478]
label: high interval
--
molecule: CCC[C@@H](C)OC(=O)Nc1c(-c2ccc(C#CC3(CC(=O)O)CC(OC)C3)c(C)n2)nnn1C (single isomer, unassigned) [278-A]
label: middle interval
--
molecule: CCC(F)(F)[C@@H](C)OC(=O)Nc1c(-c2ccc(C#CC3(CC(=O)O)CC3)c(C(F)(F)F)n2)nnn1C [compound 208]
label: middle interval
--
molecule: CCC(F)(F)[C@@H](C)OC(=O)Nc1c(-c2ccc(C#CC3(CC(=O)O)CC(OC)C3)c(Cl)n2)noc1C (some centres unmarked) [compound 470]
label: middle interval
--
molecule: CCC(F)(F)[C@@H](C)OC(=O)Nc1c(-c2ccc(C#Cc3ccncc3C(=O)O)c(C)n2)nnn1C [compound 474]
label: low interval

// data source = patent EP4755881A1
